Kd: recorded values
target: SARS-CoV-2 spike protein with D614G mutation (SARS-CoV-2, UniProt P0DTC2 14-1208)
Numbers only here, please. The scale is nM.

### Prompt Requested field: Kd. Item: anti-SARS-CoV-2 antibody 1015 (antibody, V domains shown) VH: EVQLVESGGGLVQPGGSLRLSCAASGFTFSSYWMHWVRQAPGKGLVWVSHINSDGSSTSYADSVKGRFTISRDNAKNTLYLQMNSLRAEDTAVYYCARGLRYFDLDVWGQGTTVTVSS VL: QSVLTQPPSVSEAPRQRVTISCSGSSSNIGNNAVNWYQQLPGKAPKLLIFYDDLLPSGVSDRFSGSKSGTSASLAISGLQSEDEADYYCAAWDDSLNGGVFGGGTKLTVL
### Response 0.02

### Prompt Requested field: Kd. Item: anti-SARS-CoV-2 antibody 1075 (antibody, V domains shown) VH: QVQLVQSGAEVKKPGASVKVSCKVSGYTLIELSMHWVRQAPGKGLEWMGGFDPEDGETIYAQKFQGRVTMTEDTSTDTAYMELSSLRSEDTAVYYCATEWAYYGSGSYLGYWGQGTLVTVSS VL: EIVMTQSPATLSVSPGERATLSCRASQSVSSNLAWFQQKPGQAPRLLIYGASTRVTVIPARFSGSGSGTEFTLTISSLQSEDFAVYYCQQYNNWPRTFGQGTKVEIK
### Response 0.023

### Prompt Requested field: Kd. Item: anti-SARS-CoV-2 antibody 1091 (antibody, V domains shown) VH: EVQLVESGGGLVKPGGSLRLSCAASGFPFITYSMNWVRQAPGKGLEWVSSISRNSDYIYYADSVRGRVTISRDNAENSLYLQMHSLRAEDTAVYYCARDVVRSGNYYIPRHGMDVWGRGTTVTVSS VL: QSVLTQPPSASGTPGQRVTISCSGTSSNIGSNTVNWYQQLPETAPKLLIYGTDQRPSGVPDRFSGSKSGTSASLAISRLQSEDEADYYCATRDDSLSGPVFGGGTQLTVL
### Response 0.019
